Recorded Microsomal stability t1/2 human for the following molecules
assay: Microsomal stability, human; format: in vitro ADME; settings: human liver microsomes

Query: Requested field: Microsomal stability t1/2 human. Item: `Br.Br.Br.CN[C@@H]1[C@H](O)[C@H](NC)[C@H]2O[C@]3(O)[C@H](O[C@@H]2[C@H]1O)O[C@H](C)C[C@H]3NC(=O)Cc1nccc(Cl)c1C`
Reply: >50 h

Query: Give the measured Microsomal stability t1/2 human of `Br.Br.Br.CN[C@@H]1[C@H](O)[C@H](NC)[C@H]2O[C@]3(O)[C@H](O[C@@H]2[C@H]1O)O[C@H](C)C[C@H]3NC(=O)Cc1nc2ccccc2[nH]1` .
Reply: >50 h

Query: Query (molecule): `Br.Br.Br.CN[C@@H]1[C@H](O)[C@H](NC)[C@H]2O[C@]3(O)[C@H](O[C@@H]2[C@H]1O)O[C@H](C)C[C@H]3NC(=O)Cc1cc(Cl)c(F)cn1` ; field requested: Microsomal stability t1/2 human
Reply: >50 h

----------
target: UniProt:A0QSG6; test: Ribosomal translation inhibition; type: biochemical; conditions: inhibits luciferase activity by 50%
Sequence (A0QSG6 whole entry): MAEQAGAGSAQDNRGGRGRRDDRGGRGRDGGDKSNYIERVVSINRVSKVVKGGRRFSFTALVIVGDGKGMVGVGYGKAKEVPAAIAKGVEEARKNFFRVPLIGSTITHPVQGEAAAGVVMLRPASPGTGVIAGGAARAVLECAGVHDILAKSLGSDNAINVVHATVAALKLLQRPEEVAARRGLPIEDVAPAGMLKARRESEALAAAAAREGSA
experimentalReadout: Ribosome IC50 (µg/mL)
Give just the numeric value; µg/mL need not be written.

Example cases with answers are listed next.
CNC1C(O)C(NC)C2OC3(O)C(NC(=O)Cc4cc5ccccc5[nH]4)CC(C)OC3OC2C1O (centres unmarked)
0.77
CN[C@@H]1[C@H](O)[C@H](NC)[C@H]2O[C@]3(O)[C@H](O[C@@H]2[C@H]1O)O[C@H](C)C[C@H]3NC(=O)Cc1ccc(O)cn1.Cl.Cl.Cl
0.84
Br.Br.Br.CN[C@@H]1[C@H](O)[C@H](NC)[C@H]2O[C@]3(O)[C@H](O[C@@H]2[C@H]1O)O[C@H](C)C[C@H]3NC(=O)Cc1nccc(Cl)c1C
0.59
Br.Br.Br.CNC1C(O)C(NC)C2OC3(O)C(NC(=O)Cn4cccn4)CC(C)OC3OC2C1O (centres unmarked)
0.42

Query: Which value of Ribosome IC50 has been reported for Br.Br.Br.CNC1C(O)C(NC)C2OC3(O)C(NC(=O)Cc4c[nH]cn4)CC(C)OC3OC2C1O (centres unmarked) in the records?
Reply: 1.10

----------
system: Rv1258c efflux pump; details: H37Rv MIC / Rv1258c KO MIC
experimentalReadout: Efflux Ratio
In your answer, state the number alone without any accompanying words.

Br.Br.Br.CNC1C(O)C(NC)C2OC3(O)C(NC(=O)Cc4cccnn4)CC(C)OC3OC2C1O (stereo not drawn)
2
CNC1C(O)C(NC)C2OC3(O)C(NC(=O)Nc4ccccn4)CC(C)OC3OC2C1O.Cl.Cl (stereo not drawn)
4
Br.Br.Br.CNC1C(O)C(NC)C2OC3(O)C(NC(=O)CCc4ccccn4)CC(C)OC3OC2C1O (stereo not drawn)
8

Query: I would be grateful if you could share the reported Efflux Ratio for Br.Br.Br.CNC1C(O)C(NC)C2OC3(O)C(NC(=O)Cc4csc(N)n4)CC(C)OC3OC2C1O (stereo not drawn) .
Reply: 1

Query: Suppose we examine the compound Br.Br.Br.CNC1C(O)C(NC)C2OC3(O)C(NC(=O)Cc4ccc(Br)cn4)CC(C)OC3OC2C1O (stereo not drawn) ; what Efflux Ratio value has been reported?
Reply: 2

Query: Request the reported Efflux Ratio associated with CNC1C(O)C(NC)C2OC3(O)C(NC(=O)Cc4cc5ccccc5[nH]4)CC(C)OC3OC2C1O (stereo not drawn)
Reply: 32

Sourced from paper PMC5493200
